Source of measurements: patent US9493483B2

System Tested: BRD4(BD1) (Homo sapiens (Human), UniProt O60885)
Assay Details: BRD4 AlphaLisa binding assay
Conditions Used: BRD4(BD1) 30 nM, H4-tetraacetyl peptide 200 nM; read-out: AlphaScreen IC50
Quick rule for you: IC50 under 20 nM gets class 1, anything else gets class 0.

> print(dat)
                                   compound  group.label
1  Cc1noc2c1-c1ccc(-c3cnn(C)c3)cc1C(c1ccc(Cl)cc1)=N[C@H]2CC(=O)O      class 0
2  Cc1noc(-c2ccc3c(c2)C(c2ccc(Cl)cc2)=N[C@@H](CC(N)=O)c2onc(C)c2-3)n1      class 0
3  Cc1ccc(-c2ccc3c(c2)C(c2ccc(Cl)cc2)=N[C@@H](CC(N)=O)c2onc(C)c2-3)cn1      class 0
4  Cc1noc2c1-c1ccc(-c3cnn(C)c3)cc1C(c1ccc(Cl)cc1)=N[C@H]2CC(N)=O [Compound 400]      class 1
5  Cc1noc2c1-c1ccc(-c3cnn(C)c3)cc1C(c1ccc(Cl)cc1)=N[C@H]2CC(N)=O [Compound 401]      class 1
6  Cc1noc2c1-c1ccc(-c3cnn(C)c3)cc1C(c1ccc(Cl)cc1)=N[C@H]2CC(=O)N(C)C      class 1
